Attribution: PubChem BioAssay (NCI)

Examples of compounds with documented TGI follow.
System: SK-MEL-28 melanoma
Assay: NCI tumour cell line growth inhibition, 48 h

See these solved cases before continuing.
compound	reading
COc1ccccc1NC(=S)N/N=C(/C)c1ccccn1	> 100 µM
C=CCN(c1cc(OCc2ccccc2)c(NC(C)=O)cc1[N+](=O)[O-])S(C)(=O)=O	> 100 µM
CC1=C(C(=O)Nc2ccc3[nH]ncc3c2)C(c2ccc(F)cc2)NC(=O)N1 (centres undefined)	> 25 µM

# input for lookup
## Task // returns reported TGI for input Cc1cc(N=Cc2c(CO)cnc(C)c2O)c(N=Cc2c(CO)cnc(C)c2O)cc1C.[Zn]
## Result > 100 µM
